# TARGET_OF_ASSAY: G12V-mutant human KRAS (amino acid residues 1-188) (Homo sapiens, UniProt P01116, G12V)
# Construct: G12V-mutant human KRAS (amino acid residues 1-188) with FLAG tag was purified from E. coli; made in house; host or cells: E. coli
# METHOD_NOTES: KRAS Binding Competition Assay (AlphaScreen; biotinylated KRpep-2d analogue), G12V
# ASSAY_SETUP: geometric mean, read-out: KRAS GMean IC50 (uM) MUTATION: G12V
Recorded IC50 values for a group of molecules are listed next.

MOLECULE | IC50
CN1CCC[C@H]1COc1nc(N2[C@@H]3CC[C@H]2CNC3)c2ccc(-c3cccc4cccc(CO)c34)cc2n1 [P-0283] | 10 to 100 µM
NC(=O)N1[C@@H]2CC[C@H]1CN(c1nc(OCC34CCCN3CCC4)nc3cc(-c4cc(O)cc5ccccc45)ccc13)C2 [P-0067] | 0.0001 to 10 µM
CN1CCC[C@H]1COc1nc(N2[C@@H]3CC[C@H]2CNC3)c2ccc(-c3c(F)ccc(N)c3F)cc2n1 [P-0288] | 10 to 100 µM
